TARGET ENTITY: T1, Human IL-23 (human, UniProt Q9NPF7 20-189; P29460 23-328)
T1 construct: Heterodimer of p40 and p19; For the crystal it was secreted from insect cells from a bi-cistronic construct; also called interleukin 23; human recombinant IL-23
T1 sequence (looked up) 1: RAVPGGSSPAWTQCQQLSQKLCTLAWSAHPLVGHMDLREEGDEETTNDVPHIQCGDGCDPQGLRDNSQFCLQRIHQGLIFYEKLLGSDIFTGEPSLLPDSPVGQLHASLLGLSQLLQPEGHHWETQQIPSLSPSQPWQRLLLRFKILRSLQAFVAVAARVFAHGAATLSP
T1 sequence (looked up) 2: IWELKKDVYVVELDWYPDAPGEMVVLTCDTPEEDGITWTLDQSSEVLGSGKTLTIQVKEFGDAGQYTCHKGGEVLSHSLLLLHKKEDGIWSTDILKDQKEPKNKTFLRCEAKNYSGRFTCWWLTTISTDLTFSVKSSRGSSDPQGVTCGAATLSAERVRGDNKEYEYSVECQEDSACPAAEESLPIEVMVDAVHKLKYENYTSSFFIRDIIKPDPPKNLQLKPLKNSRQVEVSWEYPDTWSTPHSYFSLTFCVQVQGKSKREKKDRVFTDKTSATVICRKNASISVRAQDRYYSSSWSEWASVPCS
EXPERIMENT SUMMARY: SPR (Biacore T100), Adnectin captured by anti-His mAb, IL-23 injected, 25 C
Entries whose kon is below 100000 M⁻¹ s⁻¹ take True; entries at or above 100000 M⁻¹ s⁻¹ take False.

BINDER | CLASS LABEL
Anti-IL-23 Adnectin 1241A05 (designed binder, 10Fn3-based Adnectin expressed in E. coli followed by a HIS6 tag; Fn3 domain is positions 3-96 of the entry; also called Clone 1241A05) MGVSDVPRDLEVVAATPTSLLISWNHNYSYYRYYRITYGETGGNSPVQEFTVPRGVATATISGLKPGVDYTITVYAVTSSYKYDMQYSPISINYRTEIDKPSQHHHHHH | True
Anti-IL-23 Adnectin 1454F05 (designed binder, 10Fn3-based Adnectin expressed in E. coli followed by a HIS6 tag; Fn3 domain is positions 3-96 of the entry) MGVSDVPRDLEVVAATPTSLLISWYMHYPYSRYYRITYGETGGNSPVQEFTVPKQHDTATISGLKPGVDYTITVYAVTSSYKYDMQYSPISINYRTEIDKPSQHHHHHH | False
Anti-IL-23 Adnectin 1454D02 (designed binder, 10Fn3-based Adnectin expressed in E. coli followed by a HIS6 tag (captured by anti-His mAb in SPR)) MGVSDVPRDLEVVAATPTSLLISWDHDYPYRRYYRITYGETGGNSPVQEFTVPRNINTATISGLKPGVDYTITVYAVTSSYKYDMQYSPISINYRTEIDKPSQHHHHHH | True
Anti-IL-23 Adnectin 1454H11 (designed binder, 10Fn3-based Adnectin expressed in E. coli followed by a HIS6 tag; Fn3 domain is positions 3-96 of the entry) MGVSDVPRDLEVVAATPTSLLISWEHDYPYRRYYRITYGETGGNSPVQEFTVPREDSTATISGLKPGVDYTITVYAVTSSYKYDMQYSPISINYRTEIDKPSQHHHHHH | True
Anti-IL-23 Adnectin 1454B05 (designed binder, 10Fn3-based Adnectin expressed in E. coli followed by a HIS6 tag; Fn3 domain is positions 3-96 of the entry) MGVSDVPRDLEVVAATPTSLLISWYHDYPYRRYYRITYGETGGNSPVQEFTVPKDEETATISGLKPGVDYTITVYAVTSSYKYDMQYSPISINYRTEIDKPSQHHHHHH | False
Anti-IL-23 Adnectin 1454B08 (designed binder, 10Fn3-based Adnectin expressed in E. coli followed by a HIS6 tag; Fn3 domain is positions 3-96 of the entry; also called Parent) MGVSDVPRDLEVVAATPTSLLISWEHDYPYRRYYRITYGETGGNSPVQEFTVPKDVDTATISGLKPGVDYTITVYAVTSSYKYDMQYSPISINYRTEIDKPSQHHHHHH | False
Anti-IL-23 Adnectin 1454C03 (designed binder, 10Fn3-based Adnectin expressed in E. coli followed by a HIS6 tag; Fn3 domain is positions 3-96 of the entry) MGVSDVPRDLEVVAATPTSLLISWDMYYPYSRYYRITYGETGGNSPVQEFTVPKEYDTATISGLKPGVDYTITVYAVTSSYKYDMQYSPISINYRTEIDKPSQHHHHHH | False
Anti-IL-23 Adnectin 1454F09 (designed binder, 10Fn3-based Adnectin expressed in E. coli followed by a HIS6 tag; Fn3 domain is positions 3-96 of the entry) MGVSDVPRDLEVVAATPTSLLISWDHNYSYRRYYRITYGETGGNSPVQEFTVPRHTDTATISGLKPGVDYTITVYAVTSSYKYDMQYSPISINYRTEIDKPSQHHHHHH | False
Anti-IL-23 Adnectin 1454F07 (designed binder, 10Fn3-based Adnectin expressed in E. coli followed by a HIS6 tag; Fn3 domain is positions 3-96 of the entry) MGVSDVPRDLEVVAATPTSLLISWYHMYSYRRYYRITYGETGGNSPVQEFTVPRDVDTATISGLKPGVDYTITVYAVTSSYKYDMQYSPISINYRTEIDKPSQHHHHHH | True
Anti-IL-23 Adnectin 1454E09 (designed binder, 10Fn3-based Adnectin expressed in E. coli followed by a HIS6 tag; Fn3 domain is positions 3-96 of the entry) MGVSDVPRDLEVVAATPTSLLISWMHDYPYRRYYRITYGETGGNSPVQEFTVPMEEDTATISGLKPGVDYTITVYAVTSSYKYDMQYSPISINYRTEIDKPSQHHHHHH | True
